test: Cynomolgus monkeys: hematology assays (Example 29); format: in vivo; conditions: day 57
In the oligonucleotide strings, read from the 5' end, every base follows the letter of its sugar. An asterisk marks phosphorothioate; unmarked linkages are phosphodiester. Other units and linkages are bracketed, terminal groups are in braces. A string of capitals states the bases alone. e = 2'-O-(2-methoxyethyl) (MOE); [5mC] = 5-methylcytosine; d = 2'-deoxy (DNA)
Each item that follows carries a reported platelet count.
value kind: platelet count (µL⁻¹)

* ISIS 416858: gapmer of Table 8 (antisense eA*e[5mC]*eG*eG*e[5mC]*dA*dT*dT*dG*dG*dT*dG*d[5mC]*dA*d[5mC]*eA*eG*eT*eT*eT) | 333000
* ISIS 416864: gapmer of Table 8 (antisense eG*eG*e[5mC]*eA*eG*d[5mC]*dG*dG*dA*d[5mC]*dG*dG*d[5mC]*dA*dT*eT*eG*eG*eT*eG) | 409000
* ISIS 416850: gapmer of Table 8 (antisense eT*eG*e[5mC]*eA*e[5mC]*dA*dG*dT*dT*dT*d[5mC]*dT*dG*dG*d[5mC]*eA*eG*eG*e[5mC]*e[5mC]) | 528000
* ISIS 416838: gapmer of Table 6 (antisense eG*e[5mC]*eA*eA*e[5mC]*d[5mC]*dG*dG*dG*dA*dT*dG*dA*dT*dG*eA*eG*eT*eG*e[5mC]) | 371000
* ISIS 417002: gapmer of Table 8 (antisense eG*eG*dT*dG*d[5mC]*dA*d[5mC]*dA*dG*dT*dT*dT*d[5mC]*dT*dG*eG*e[5mC]*eA*eG*eG) | 403000
